Ref: PubChem BioAssay (Tox21)

assay: qHTS assay for identifying genotoxic compounds that show differential cytotoxicity against isogenic chicken DT40 cell lines with known DNA damage response pathways - Rad54/Ku70 mutant cell line (AID 743015); details: DT40 Rad54/Ku70 mutant viability, CellTiter-Glo, 40 h; series mostly up to 66.8 µM; note: nearly all actives have a fitted effect of over 60% in size
Results filed as inconclusive are left out. The source made the active and inactive calls. Calls come from the whole dose curve; as a rule, active = well fitted cell-killing curve with a large enough effect in the repeat runs; inconclusive = weak or mixed curves; inactive = no such curve, though single readings can be large or run the other way.
Outcomes you can answer with include only these: active, inactive

Illustrative cases are given below, each with its answer.
# chemical_string, discrete_label
data = [
    ("CC(C)Cc1nccs1", "inactive"),
    ("OCCc1ccncc1", "inactive"),
    ("CC1(C)CC(=O)CC(C)(C)N1", "inactive"),
]

Status in this test for "CCCCCO" ? inactive

Status in this test for "O=[N+]([O-])c1ccc(Cl)cc1Cl" ? inactive

Status in this test for "C/C=C1\[C@H]2C=C(C)C[C@]1(N)c1ccc(=O)[nH]c1C2" ? inactive

Status in this test for "CCOCCn1c(N2CCCN(C)CC2)nc2ccccc21" ? inactive

Status in this test for "Cc1c(Cl)cccc1[N+](=O)[O-]" ? inactive

Status in this test for "O=C(O)COCC(=O)O" ? inactive

Status in this test for "CCCC(=O)OCc1ccccc1" ? inactive

###

assay: A CellTox Green Cytotoxicity Assay to monitor cytotoxicity in HepG2 cells - 24 hour (AID 1224878); settings: CellTox Green fluorescence; series mostly up to 76.8 µM; note: nearly all actives have a fitted effect of over 45% in size
Inconclusive results are not listed. Activity calls are given as the source filed them. The call rests on the fitted dose curve; in most records, active means well fitted activation curve with a large enough effect in the repeat runs; inconclusive means weak or mixed curves; inactive means flat fitted curve, though single readings scatter.
Outcomes you can answer with include only these: active, inactive

Illustrative cases are given below, each with its answer.
# compound, discrete_label
measured = [
    ("O=C(OCCCCCOC(=O)c1ccccc1)c1ccccc1", "inactive"),
    ("CC(C)(C)N", "inactive"),
    ("CCN(CC)CC(=O)OCC(=O)[C@@]1(O)CC[C@H]2[C@@H]3CCC4=CC(=O)CC[C@]4(C)[C@H]3[C@@H](O)C[C@@]21C", "inactive"),
    ("O=C1OC(=O)C2CC=CCC12 (stereo not drawn)", "inactive"),
    ("O=c1[nH]nc(-c2ccc([N+](=O)[O-])o2)o1", "inactive"),
]

Status in this test for "Sc1nc(S)nc(S)n1" ? inactive

Status in this test for CCCC1CCCC(=O)O1 (stereo not drawn) ? inactive

Status in this test for "Nc1nc(Cl)nc2c1ncn2[C@H]1C[C@H](O)[C@@H](CO)O1" ? inactive

Status in this test for "CC(C)C[C@H](NC(=O)[C@H](Cc1ccccc1)NC(=O)c1cnccn1)B(O)O" ? active

Status in this test for "C=CC(=O)NC(C)(C)C" ? inactive

###

Test: qHTS assay for small molecule agonists of the p53 signaling pathway (AID 651631); note: nearly all actives have a fitted effect of over 15% in size
Details: HCT-116 p53RE-bla reporter, beta-lactamase FRET ratio, 16 h; series mostly up to 73.3 µM
Text: U.S. Tox21 Program National Center for Advancing Translational Sciences [NCATS] NIH Chemical Genomics Center [NCGC] U.S. Environmental Protection Agency [EPA] National Institutes of Environmental Health Sciences [NIEHS] National Toxicology Program [NTP] U.S. Food and Drug Administration [FDA] […] The activation of the reporter gene under culture conditions can be detected by fluorescence intensity. […]
Results filed as inconclusive are left out. Active and inactive are the calls of the source. Calls follow the shape of the full dose curve.
Outcomes you can answer with include only these: class 1 for active, class 0 for inactive

# compound, discrete_label
data = [
    ("CCCCOC(=O)CC#N", "class 0"),
    ("Clc1cc(Cl)c2c(c1)N=C1CCCCCN1C2", "class 0"),
    ("C=CC(C)(O)CC/C=C(/C)CCC=C(C)C (stereo not drawn)", "class 0"),
    ("C/C(=C\\C(C)CC(C)CC(C)C)C1CC(=O)OC1=O (stereo not drawn)", "class 0"),
]

Status in this test for "O=C1c2ccccc2C(=O)C1c1ccc2ccccc2n1" ? class 0

Status in this test for "C=C(C)C(=O)OCCCCCCCCCCOC(=O)C(=C)C" ? class 0

Status in this test for "COc1cc(CNC(=O)CCCC/C=C/C(C)C)ccc1O" ? class 0

Status in this test for "COc1ccc(/C=C/S(=O)(=O)NC(=O)c2ccc(C)cc2Cl)cc1" ? class 1

Status in this test for "Cc1cc(C)n(CO)n1" ? class 0

Status in this test for "C[Si](C)(C)O[Si](C)(C)O[Si](C)(C)C" ? class 0

Status in this test for "COC(=O)Cc1cccc2ccccc12" ? class 0

Status in this test for "O=C1c2ccccc2C(=O)C1c1ccc2cc(S(=O)(=O)O)cc(S(=O)(=O)O)c2n1" ? class 0

Status in this test for CC1=C(C)C(=O)C(C(CCCCCC(=O)O)c2ccccc2)=C(C)C1=O (stereo not drawn) ? class 0
